Assay: inhibitors of MT1-MMP promoter transcription, cell-based, luciferase reporter, luminescence (AID 618);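 note: actives suppress MT1-MMP promoter-driven transcription so potencies describe inhibitors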
Conditions: MT1-MMP promoter luciferase reporter cells
The campaign covered roughly 87,000 compounds. About 540 (0.62%) were called active. The rule behind the calls is not given here. The sample holds actives, similar compounds and a random draw of the others, so the mix is not that of the screen. Measured potencies and affinities stand elsewhere.
// one of y = active, n = inactive, no free text

CCOC(=O)c1c(COC(=O)c2ccco2)nc2ccccc2[n+]1[O-]: n
CCN(CC)c1ccc2cc(C(=O)Nc3ccc(-n4cnnn4)c(OC)c3)c(=O)oc2c1: n
CCOc1ccc(C2=Nn3c(nnc3-c3ccccc3OC)SC2)cc1: y
O=C(CSc1nnc(-c2ccncc2)n1Cc1ccco1)N1c2ccccc2Sc2ccc(Cl)cc21: n
Cc1ccc(-c2nc3ccccn3c2NC(=O)c2ccco2)cc1: n

Problem: Test call, this molecule: Cc1ccc(C2C(C#N)=C(N)Oc3n[nH]c(C)c32)cc1 (configuration not stated)
Solution: n

Problem: Test call, this molecule: COc1ccc(OC)c(C2=Nn3c(nnc3-c3cc(OC)c(OC)c(OC)c3)SC2)c1
Solution: n

Problem: Test call, this molecule: COC(=O)CCn1nnc(-c2cccs2)n1
Solution: n

Problem: Test call, this molecule: O=C(NCCCn1ccnc1)c1noc2c1CCc1ccccc1-2
Solution: n

Problem: Test call, this molecule: CC(=O)N1CCn2c3c(c(=O)c4cc(C)ccc42)CCC31 (configuration not stated)
Solution: n

Problem: Test call, this molecule: O=C(NCc1ccccc1)C(c1cccnc1)N(Cc1ccco1)C(=O)c1ccccn1 (configuration not stated)
Solution: n

Problem: Test call, this molecule: CCn1c(=O)cc(SCC(=O)N2CCCCC2)c2ccccc21
Solution: n
